Tested on: MS2 coat protein
Assay Notes: apparent KD of MS2 coat protein; higher = weaker reporter binding
Conditions Used: Eterna round: R107; input ligand: theophylline 20 uM
Label scheme for apparent KD of MS2 coat protein: lower than 40 nM is No, 40 nM and above is Yes.

Example cases with answers are listed next.
Ordered Residues	Classification
UUACACAUGAGGAUCACCCAUGUCUGGGAGCGAGGACCGGUACGGCCGCCACUCGAAUUGUCAGGGCUAUGCCGGACGAUGCAUC [theeternabot_sameState_MS2_Trp_A_20]	No
UCGUGCAGAGCGGCCGCCACUGUAUUGCGUGCGGAUGACGGAACAUGAGGAUCACCCAUGUUGUUUAGGACCGGGCUUGCCACCA ['xmullin]	No
UUUACAUGAGGAUCACCCAUGUGCCAUGAUACCAGACAUGAAAAUGUCCCUUGGCAGCAUGAGUGAUGCAUCCGAAAGGAUGUUU [Ivanovice]	Yes
GGCUAGUGCAUCGAUACCAGCUACAUGAGGAUCACCCAUGUAGGAAGGGUGGCACUCGAUAGCCCUUGGCAGCGAACACCUCCGG [Cebebion]	No
UCGCUCUGGGUGGAAUCCGGAGAUGUGGAAGGAGCGCUCGAAAGGGCAGGUAGGUCGCCAACGGACAUGAGGAUCACCCAUGUAC [#23 Same State - Arginine A]	No

# bool: apparent KD of MS2 coat protein of `GGGUACAUCGCGGCCGCCACUUAUGUAAAUACAUGAGGAUCACCCAUGUCGAUGGAGACAUCGGAGAGGACCGGGUGAUGUACCG` >= 40 nM Yes
